Origin of values: patent US4092313A

Entries annotated with measured LD50 at 504 h
# EXPERIMENTAL DETAILS: Acute toxicity, oral administration to mice, LD50 (method of Litchfield and Wilcoxon)
# Assay type: in vivo
# CONDITION DESCRIPTION: mouse, in vivo, checked 3 weeks later

COMPOUND | LD50 at 504 h, mg/kg
CCCCOc1ncc(F)c(=O)[nH]1 [2-n-Butoxy-5-fluoropyrimidin-4-one, 2-n-butoxy-5-fluoropyrimidin-4-one] | 945
O=c1[nH]c(OCc2ccccc2)ncc1F [2-Benzyloxy-5-fluoropyrimidin-4-one, 2-benzyloxy-5-fluoropyrimidin-4-one] | 894

###

# EXPERIMENTAL DETAILS: Acute toxicity, oral administration to mice, LD50 (method of Litchfield and Wilcoxon)
# Format: in vivo
# CONDITION DESCRIPTION: mouse, in vivo, checked 3 days later
Known LD50 at 72 h of a selection of compounds

SMILES DATA | LD50 at 72 h
O=c1[nH]c(OCc2ccccc2)ncc1F | 894 mg/kg
CCCCOc1ncc(F)c(=O)[nH]1 | 945 mg/kg

###

# EXPERIMENTAL DETAILS: Acute toxicity, oral administration to mice, LD50 (method of Litchfield and Wilcoxon)
# Assay type: in vivo
# CONDITION DESCRIPTION: mouse, in vivo, checked one week later, read-out: LD50, 1 Week

SMILES DATA | RESULT UNIT | LD50 at 168 h
CCCCOc1ncc(F)c(=O)[nH]1 | mg/kg | 945
O=c1[nH]c(OCc2ccccc2)ncc1F | mg/kg | 894
